System: BT474 tumor cells
Experiment: Cell growth inhibition assay (CellTiter-Glo), BT474
Format: cell-based, Human
Settings: Homo sapiens, BT-474, 72 h, 3 days incubation
readout: IC50

Please review the entries below; each comes with its answer.
Query string: Can you look up the measured IC50 of CC(C)c1nc(-c2cccc(NS(=O)(=O)c3c(F)cccc3F)n2)c(-c2ccnc(Nc3ccc(N4CCOCC4)nc3)n2)s1 [Example 44] for me?
Result string: > 1000 nM

Query string: Can you look up the measured IC50 of CC(C)c1nc(-c2ccnc(NS(=O)(=O)c3c(F)cccc3F)c2)c(-c2ccnc(Nc3cnc(N4CCOCC4)c(F)c3)n2)s1 [Example 33] for me?
Result string: > 1000 nM

# input for lookup
Query string: Can you look up the measured IC50 of Nc1nc(-c2cccc(NS(=O)(=O)c3c(F)cccc3F)c2)c(-c2ccnc(Nc3ccc(N4CCOCC4)nc3)n2)s1 [Example 62] for me?
Result string: > 1000 nM

----------
Tested on: A375P F11s tumor cells
Assay: Cell growth inhibition assay (CellTiter-Glo), A375P F11s
Type: cell-based, Human
Conditions: Homo sapiens
pIC50: −log10 of the molar value.
readout: pIC50

Query string: Can you look up the measured pIC50 of `CC(=O)N1CCN(c2ccc(Nc3nccc(-c4sc(C(C)C)nc4-c4cccc(NS(=O)(=O)c5cn(C)cn5)c4)n3)cn2)CC1` for me?
Result string: 6.00 to 7.00

Query string: Can you look up the measured pIC50 of `O=S(=O)(Nc1cccc(-c2nc(N3CCOCC3)sc2-c2ccnc(Nc3ccc(N4CCOCC4)nc3)n2)c1Cl)c1c(F)cccc1F` for me?
Result string: > 7.00

***
Query string: Can you look up the measured pIC50 of `CC(C)c1nc(-c2ccc(F)c(NS(=O)(=O)c3ccccc3C#N)c2)c(-c2ccnc(Nc3ccc(N4CCOCC4)nc3)n2)s1` for me?
Result string: 6.00 to 7.00

----------
The compounds below have reported IC50 for EGFR (Homo sapiens, UniProt P00533).

Query string: IC50 of O=S1(=O)Cc2ccc(Nc3nccc(-c4sc(N5CCOCC5)nc4-c4cccc(NS(=O)(=O)c5c(F)cccc5F)c4F)n3)cc2C1 [Example 155] on EGFR (Homo sapiens, UniProt P00533)?
Result string: 100 to 1000 nM

Query string: IC50 of COc1cc(CCN2CCCCC2)c(F)cc1Nc1nccc(-c2sc(C(C)C)nc2-c2cccc(NS(=O)(=O)c3c(F)cccc3F)c2)n1 [Example 156] on EGFR (Homo sapiens, UniProt P00533)?
Result string: 100 to 1000 nM

Query string: IC50 of CC(C)c1nc(-c2ccc(F)c(NS(=O)(=O)c3c(F)cccc3F)c2)c(-c2ccnc(Nc3ccc(N4CCN(CCS(C)(=O)=O)CC4)c(F)c3)n2)s1 [Example 95] on EGFR (Homo sapiens, UniProt P00533)?
Result string: 100 to 1000 nM

Query string: IC50 of Cc1nc(-c2cccc(NS(=O)(=O)c3c(F)cccc3F)c2)c(-c2ccnc(Nc3ccc(N4CCOCC4)nc3)n2)s1 [Example 133] on EGFR (Homo sapiens, UniProt P00533)?
Result string: > 1000 nM

Query string: IC50 of COc1ccc(S(C)(=O)=O)cc1Nc1nccc(-c2sc(N3CCOCC3)nc2-c2cccc(NS(=O)(=O)c3c(F)cccc3F)c2Cl)n1 [Example 164] on EGFR (Homo sapiens, UniProt P00533)?
Result string: > 1000 nM

Query string: IC50 of CC(C)c1nc(-c2cccc(NS(=O)(=O)c3cnn(C)c3)c2)c(-c2ccnc(Nc3ccc(N4CCOCC4)nc3)n2)s1 [Example 174] on EGFR (Homo sapiens, UniProt P00533)?
Result string: > 1000 nM

Query string: IC50 of CC(C)c1nc(-c2ccc(F)c(NS(=O)(=O)c3c(F)cccc3F)c2)c(-c2ccnc(Nc3ccc(N4CCC(C#N)CC4)nc3)n2)s1 [Example 24] on EGFR (Homo sapiens, UniProt P00533)?
Result string: > 1000 nM

Query string: IC50 of CC(C)c1nc(-c2ccc(F)c(NS(=O)(=O)c3c(F)cccc3F)c2)c(-c2ccnc(Nc3ccncn3)n2)s1 [Example 148] on EGFR (Homo sapiens, UniProt P00533)?
Result string: > 1000 nM

***
Query string: IC50 of CC(C)(F)c1nc(-c2ccc(F)c(NS(=O)(=O)c3c(F)cccc3F)c2)c(-c2ccnc(Nc3ccc(N4CCOCC4)nc3)n2)s1 [Example 103] on EGFR (Homo sapiens, UniProt P00533)?
Result string: > 1000 nM

Query string: IC50 of O=S(=O)(Nc1cccc(-c2ncsc2-c2ccnc(Nc3ccc(N4CCOCC4)nc3)n2)c1)c1c(F)cccc1F [Example 162] on EGFR (Homo sapiens, UniProt P00533)?
Result string: 100 to 1000 nM

Where do these numbers come from? They come from patent US20110319392A1.
